system: TK-10; test: NCI in vitro screen, SRB percent growth, Renal Cancer; details: read-out: LC-50; PG=-50
Measured Parameter: CC50 (µM)
Enter your answer as a number in µM; do not include the unit.

Asked: Dear colleague, I am looking for the recorded CC50 of the following molecule: "Cc1ccc2[nH]c3c(C)c4c(c(C)c3c2c1)CN(C)C=C4"
Given back: 49.6

* * *

tested on: U251; assay: NCI in vitro screen, SRB percent growth, CNS Cancer; details: read-out: LC-50; PG=-50
Measured Parameter: CC50

Asked: Provide the documented CC50 with U251 as the system for "Cc1ccc2[nH]c3c(C)c4c(c(C)c3c2c1)CN(C)C=C4"
Given back: 5.12 µM

Asked: State its CC50 on U251: "COc1ccc2[nH]c3c(C)c4c(c(C)c3c2c1)CN(C)C=C4"
Given back: > 100 µM

* * *

Give CC50 for every item shown.
test system: OVCAR-3; test: NCI in vitro screen, SRB percent growth, Ovarian Cancer; conditions: read-out: LC-50; PG=-50

Asked: Enter reported CC50 observed with OVCAR-3 for "COc1ccc2[nH]c3c(C)c4c(c(C)c3c2c1)CN(C)C=C4"
Given back: > 100 µM

Asked: Could you share what CC50 was measured for "Cc1ccc2[nH]c3c(C)c4c(c(C)c3c2c1)CN(C)C=C4" , tested on OVCAR-3?
Given back: 37.6 µM

* * *

system: HL-60 (TB); test: NCI in vitro screen, SRB percent growth, Leukemia; settings: read-out: LC-50; PG=-50
What CC50 was measured for each of the following?

Asked: Query for HL-60 (TB): what CC50 does the record show for "Cc1ccc2[nH]c3c(C)c4c(c(C)c3c2c1)CN(C)C=C4" ?
Given back: > 0.1 mM

Asked: What measured CC50 is associated with "COc1ccc2[nH]c3c(C)c4c(c(C)c3c2c1)CN(C)C=C4" on HL-60 (TB)?
Given back: > 10 mM

* * *

Kindly state CC50 for each of the entries shown.
tested on: SNB-19; assay: NCI in vitro screen, SRB percent growth, CNS Cancer; conditions: read-out: LC-50; PG=-50

Asked: Query: CC50; subject: Cc1ccc2[nH]c3c(C)c4c(c(C)c3c2c1)CN(C)C=C4 [Formula XI]
Given back: 9.78 µM

Asked: Entry COc1ccc2[nH]c3c(C)c4c(c(C)c3c2c1)CN(C)C=C4 [Formula VII] has what CC50?
Given back: > 100 µM

* * *

tested on: M19-MEL; experiment: NCI in vitro screen, SRB percent growth, Melanoma; details: read-out: LC-50; PG=-50
Assign CC50 to each entry below.
Express your answer in µM, writing the number without its unit.

Asked: Could you tell me which CC50 is on file for "COc1ccc2[nH]c3c(C)c4c(c(C)c3c2c1)CN(C)C=C4" ?
Given back: 34.7

Asked: Item under review: "Cc1ccc2[nH]c3c(C)c4c(c(C)c3c2c1)CN(C)C=C4" . Reported CC50?
Given back: 4.83

* * *

tested on: RXF-393; assay: NCI in vitro screen, SRB percent growth, Renal Cancer; conditions: read-out: LC-50; PG=-50
Measured Parameter: CC50 (µM)
The reply should be a number in µM, with the unit left off.

Asked: For the compound Cc1ccc2[nH]c3c(C)c4c(c(C)c3c2c1)CN(C)C=C4 [Formula XI] , what CC50 is on record?
Given back: 38.5

* * *

tested on: SK-MEL-28; test: NCI in vitro screen, SRB percent growth, Melanoma; conditions: read-out: LC-50; PG=-50
I'd appreciate it if you could supply CC50 values for the items below.
Reply with just the number (in µM).

Asked: Tell me the measured CC50 of COc1ccc2[nH]c3c(C)c4c(c(C)c3c2c1)CN(C)C=C4 [Formula VII] , please.
Given back: 48.6

Asked: Can you look up the measured CC50 of Cc1ccc2[nH]c3c(C)c4c(c(C)c3c2c1)CN(C)C=C4 [Formula XI] for me?
Given back: 8.62

* * *

Assign CC50 to each entry below.
tested on: NCI-H460; experiment: NCI in vitro screen, SRB percent growth, Non-Small Cell Lung Cancer; details: read-out: LC-50; PG=-50
Only the number, expressed in µM, is required.

Asked: Fill in: CC50 of COc1ccc2[nH]c3c(C)c4c(c(C)c3c2c1)CN(C)C=C4 [Formula VII] is ___
Given back: 49.5

Asked: // query CC50 value for entry Cc1ccc2[nH]c3c(C)c4c(c(C)c3c2c1)CN(C)C=C4 [Formula XI]
Given back: 42.1

* * *

test system: SK-OV-3; assay: NCI in vitro screen, SRB percent growth, Ovarian Cancer; details: read-out: LC-50; PG=-50
Measured Parameter: CC50 (µM)
Note: unit µM is implicit; provide only the numeric part.

Asked: What measured CC50 goes with "Cc1ccc2[nH]c3c(C)c4c(c(C)c3c2c1)CN(C)C=C4" ?
Given back: 63.3

* * *

system: ACHN; experiment: NCI in vitro screen, SRB percent growth, Renal Cancer; conditions: read-out: LC-50; PG=-50
Measured Parameter: CC50 (µM)
Report as a plain number; the unit µM is understood.

Asked: Quick one: CC50 of Cc1ccc2[nH]c3c(C)c4c(c(C)c3c2c1)CN(C)C=C4 [Formula XI] ?
Given back: 45.1

* * *

system: SNB-78; experiment: NCI in vitro screen, SRB percent growth, CNS Cancer; details: read-out: LC-50; PG=-50
Measured Parameter: CC50 (µM)
Number only, in µM; omit the unit.

Asked: Param readout= CC50; system= SNB-78; entry= "Cc1ccc2[nH]c3c(C)c4c(c(C)c3c2c1)CN(C)C=C4" ; returns value.
Given back: 25.2

* * *

tested on: IGROV1; test: NCI in vitro screen, SRB percent growth, Ovarian Cancer; details: read-out: LC-50; PG=-50
Measured Parameter: CC50 (µM)
Kindly answer with a numeric value in µM, unit omitted.

Asked: Missing value: CC50, IGROV1, entry Cc1ccc2[nH]c3c(C)c4c(c(C)c3c2c1)CN(C)C=C4 [Formula XI] . Fill in?
Given back: 39.9

* * *

system: XF 498; assay: NCI in vitro screen, SRB percent growth, CNS Cancer; details: read-out: LC-50; PG=-50
I'd appreciate it if you could supply CC50 values for the items below.
// return numeric value only (unit: µM, not printed)

Asked: Notebook entry, XF 498 assay: CC50 of Cc1ccc2[nH]c3c(C)c4c(c(C)c3c2c1)CN(C)C=C4 [Formula XI] = ?
Given back: 50.4

Asked: Field: CC50 (XF 498). Entry: COc1ccc2[nH]c3c(C)c4c(c(C)c3c2c1)CN(C)C=C4 [Formula VII]
Given back: 52.7

* * *

system: HCT-116; assay: NCI in vitro screen, SRB percent growth, Colon Cancer; conditions: read-out: LC-50; PG=-50
Measured Parameter: CC50 (µM)
Report as a plain number; the unit µM is understood.

Asked: Record request: CC50 value, item "Cc1ccc2[nH]c3c(C)c4c(c(C)c3c2c1)CN(C)C=C4"
Given back: 42.8

* * *

tested on: HOP-18; assay: NCI in vitro screen, SRB percent growth, Non-Small Cell Lung Cancer; settings: read-out: LC-50; PG=-50
Measured Parameter: CC50

Asked: Requested field: CC50. Item: "COc1ccc2[nH]c3c(C)c4c(c(C)c3c2c1)CN(C)C=C4"
Given back: > 100 µM

* * *

system: SK-MEL-5; assay: NCI in vitro screen, SRB percent growth, Melanoma; conditions: read-out: LC-50; PG=-50
Measured Parameter: CC50 (µM)
Your answer should be a plain number; it is taken to be in µM.

Asked: Form field: CC50 recorded for COc1ccc2[nH]c3c(C)c4c(c(C)c3c2c1)CN(C)C=C4 [Formula VII] with SK-MEL-5 (enter value)
Given back: 9.49

Asked: Request body: readout CC50, system SK-MEL-5, query Cc1ccc2[nH]c3c(C)c4c(c(C)c3c2c1)CN(C)C=C4 [Formula XI] . Return the value.
Given back: 6.49

* * *

tested on: UO-31; assay: NCI in vitro screen, SRB percent growth, Renal Cancer; details: read-out: LC-50; PG=-50
Measured Parameter: CC50 (µM)
Quick reminder: number only, in µM, skip the unit.

Asked: Would you kindly share the measured CC50 for Cc1ccc2[nH]c3c(C)c4c(c(C)c3c2c1)CN(C)C=C4 [Formula XI] ?
Given back: 45.7

* * *

For each entry below, report its CC50 value.
tested on: RXF-631; test: NCI in vitro screen, SRB percent growth, Renal Cancer; settings: read-out: LC-50; PG=-50

Asked: Query (compound): Cc1ccc2[nH]c3c(C)c4c(c(C)c3c2c1)CN(C)C=C4 [Formula XI] ; field requested: CC50
Given back: 39.5 µM

Asked: Need CC50, item COc1ccc2[nH]c3c(C)c4c(c(C)c3c2c1)CN(C)C=C4 [Formula VII]
Given back: > 100 µM
